# Tested on: NCI/ADR-RES ovarian
# Protocol details: NCI-60 one-dose screen, 48 h (100 = growth as untreated, 0 = no growth, -100 = all killed)
# Experimental setup: 10 µM unless noted
The panel holds about 83,000 compounds, 20% with a hit somewhere; the sample as a whole holds those more often.
Measure: growth (%)
Answers are plain numbers, in %.

Past entries and their recorded results:
[[record]]
molecule = "O=[N+]([O-])c1ccc(N/N=C(/C(=N/Nc2ccc([N+](=O)[O-])cc2)c2ccccc2)c2ccccc2)cc1"
reported = 63.7

[[record]]
molecule = "c1cnc2[nH]cc(-c3csc(-c4cn(CCCN5CCOCC5)c5ccccc45)n3)c2c1"
reported = 60.1

[[record]]
molecule = "Cn1c(=O)c2c(nc(NC3=NS(=O)(=O)c4ccccc43)n2CC(=O)N2CCc3ccccc32)n(C)c1=O"
reported = 91.8

[[record]]
molecule = "O=C1c2cccnc2C(=O)c2c1c(C(=O)NCCn1ccnc1)c1ccccn21"
reported = 75.3

[[record]]
molecule = "CCOC(=O)/C=C1\\S/C(=N\\Nc2cc(=O)[nH]c3ccc(Cl)cc23)N(c2ccccc2)C1=O"
reported = 101


Below are some molecules; for each one, tell me its growth.
1. CC1=C(CCC(C)N(C)Cc2ccc(OCCCN3CCCC3)cc2)C(C)(C)CCC1 (centres undefined)
2. CCCC(=O)NC(c1ccc2c(c1)OCO2)c1ccc2cccnc2c1O (centres undefined)

# output
1: 63; 2: 3.18

Hey, can you go through the list below and give me growth for every item?
1. Fc1cccc(CNc2c3ccccc3nc3ccccc23)c1F
2. C#CCOc1ccc2ncnc(Nc3cccc(NC(=O)C=C)c3)c2c1

# output
[48.5, 80.2]

----------
# Test system: HCT-15 colon
# Protocol details: NCI-60 one-dose screen, 48 h (100 = growth as untreated, 0 = no growth, -100 = all killed)
# Experimental setup: 10 µM unless noted
The panel holds about 83,000 compounds, 20% with a hit somewhere; the sample as a whole holds those more often.
Kindly supply the reported growth values for the records listed here.
Give bare numbers, in %.

Illustrative cases are given below, each with its answer.
[[record]]
compound = "C#CCOc1cccc(Nc2ncnc3ccc(NC(=O)CCl)cc23)c1"
measure = "growth"
reported = -41.6

[[record]]
compound = "N#Cc1c(N)nnn1Cc1cc(=O)oc2c1ccc1ccccc12"
measure = "growth"
reported = 102

[[record]]
compound = "Cc1ccc(Sc2oc(-c3ccc(C)cc3)nc2[P+](c2ccccc2)(c2ccccc2)c2ccccc2)cc1"
measure = "growth"
reported = 0.625


Hey, can you go through the list below and give me growth for every item?
1. Cc1cccc(Cl)c1NC(=O)c1ccc2nc(NC(=O)NCCN(C)C)sc2c1
2. C1=C(N2CCCC2)CCC1
3. CCOC(=O)c1[nH]c(=O)c2c(C)nc(-c3ccccc3)cc2c1O
4. Oc1c(Cl)cc(Cl)c2ccc(Cn3cc(-c4ccc(C(F)(F)F)cc4)nn3)nc12
5. O=C(Cn1c(=O)sc2ccccc21)NNS(=O)(=O)c1ccccc1[N+](=O)[O-]
6. O=S(=O)(Nc1cc(Br)c(O)c2ccccc12)c1ccc(F)cc1

# output
1: 99.3; 2: 104; 3: 100; 4: 31.3; 5: 103; 6: 86.8

// for each compound below, give its growth
1. COc1ccc(-c2csc(N(C(=O)N3CCN(c4cc5c(cc4F)c(=O)c(C(=O)O)cn5C4CC4)CC3)c3ccccc3)n2)cc1
2. CNC(=O)c1c(NC(=O)c2ccc(C(F)(F)F)cc2)sc2c1CCC(=O)C2
3. COc1cc(CNS(=O)(=O)c2ccc(C)cc2)ccc1OCc1cn(-c2ccc(Br)cc2)nn1

# output
1: 9.72; 2: -54.1; 3: 103

Consider the following items and state reported growth for each.
1. C=CCn1c(SCC(=O)Nc2ccc(C(=O)/C=C/c3ccc(Cl)cc3)cc2)nnc1-c1cc(-c2ccc(S(N)(=O)=O)cc2)nc2ccccc12
2. COc1ccc(CC(C#N)c2cc3ccccc3[nH]2)cc1 (stereo not given)
3. CCn1cc(C(=O)N/N=C/c2cccs2)c(=O)c2cc(F)c(N3CCNC(C)C3)c(F)c21 (stereo not given)
4. COc1ccc(/C=N/C2=C(C#N)C(c3cccc(Cl)c3)c3c(ccc4ccccc34)O2)cc1 (stereo not given)
5. Cc1cc2c(O)c(-c3cc(Cl)ccc3Cl)c3sc(=O)oc3c2cc1C

# output
1: 96.5; 2: 91.5; 3: 25; 4: 16.7; 5: 74.5

The following compounds each have a reported value; give each one's growth.
1. Clc1ccc2c(c1)N(c1ncnc3ccc(-c4cnc5[nH]ncc5c4)cc13)CC2
2. O=C(Nn1c2c(sc1=NCc1ccccc1)C(=O)c1ccccc1C2=O)c1cc2ccc1CCc1ccc(cc1)CC2
3. CSc1nnc(-c2cnn3c2NC(c2ccccc2)C3)n1-c1ccc(C(F)(F)F)cc1 (stereo not given)

# output
1: 25; 2: 55.3; 3: 35.1

----------
# Test system: SN12C renal
# Protocol details: NCI-60 one-dose screen, 48 h (100 = growth as untreated, 0 = no growth, -100 = all killed)
# Experimental setup: 10 µM unless noted
The panel holds about 83,000 compounds, 20% with a hit somewhere; the sample as a whole holds those more often.
y means recorded growth is 20% or above; n means it is below 20%.

Known results for compounds:
[[record]]
compound = "Nc1nc(=S)c2ncn(C3OC(COP(=O)(O)O)C(O)C3O)c2[nH]1 (centres undefined)"
system = "SN12C renal"
group = "y"

[[record]]
compound = "N#Cc1cnc(NCCc2ccncc2)nc1-n1cnc2ccccc21"
system = "SN12C renal"
group = "y"

[[record]]
compound = "C=C(C)[C@@H]1CC[C@]2(C(=O)NCC#CCN3CCN(C)CC3)CC[C@]3(C)[C@H](CC[C@@H]4[C@@](C)(CCC#N)[C@H](C(=C)C)CC[C@]43C)[C@@H]12"
system = "SN12C renal"
group = "y"

[[record]]
compound = "N#C/C(=C\\c1ccc(Br)cc1)n1nnc2ccc(F)cc21"
system = "SN12C renal"
group = "n"

[[record]]
compound = "Cc1ccccc1NC(=O)c1sc2nc(C)c(C(=O)/C=C/c3ccccc3)cc2c1N"
system = "SN12C renal"
group = "n"


# input Kindly determine if growth recorded for Cc1ccc(S(=O)(=O)N2CCCC2CO)cc1 (centres undefined) is above or exactly 20%.
# output y

# input Then `CN1CCN(Cc2ccc(NC(=O)c3cncc(C#Cc4cnc(N)c5ccccc45)c3)cc2C(F)(F)F)CC1` ?
# output n

# input Could you do the same for `C=CC(=O)NCc1ccc(Nc2nccc(-c3ccc(N4CCCC4)c(C#N)c3)n2)cc1` , please?
# output y

----------
# Tested on: NCI-H226 lung
# Protocol details: NCI-60 one-dose screen, 48 h
# Experimental setup: 10 µM unless noted
Compounds without any hit were thinned out: in the full panel of roughly 83,000, 20% have a hit. The source made the active and inactive calls. How the source made its calls: active means growth percent below 10; inactive means the rest.
The reply should be one of these categories: active, inactive

Consider the worked cases shown below.
[[record]]
structure_smiles_string = "Cc1cc(Cl)ccc1Nc1nc(C(F)(F)F)ccc1C(=O)N/N=C/c1ccc([N+](=O)[O-])cc1"
group = "active"

[[record]]
structure_smiles_string = "CC(=O)Cc1nsc(NC(=O)c2cc(-c3cc(Cl)cc(Cl)c3)oc2C)n1"
group = "inactive"

[[record]]
structure_smiles_string = "CCOC(=O)c1c(NC(=O)c2ccc(C(C)C)cc2)sc2c(CN(C)C)c(O)ccc12"
group = "inactive"


# input What did the test return for `COc1ccc2nc(NC(=O)CSc3nnc4n3S(=O)(=O)c3ccccc3N4C)sc2c1` ?
# output inactive

# input And for `C#Cc1ccc(NC(=O)c2ccc(/C=C/C(=O)c3nccn3C)cc2)cc1` ?
# output active

----------
# Tested on: SF-539 CNS
# Protocol details: NCI-60 one-dose screen, 48 h
# Experimental setup: 10 µM unless noted
This is part of a sample that, as a whole, favours compounds with a hit. Of some 83,000 tested, about 20% had one in any assay. The source made the active and inactive calls. Rule for the calls: active = growth percent below 10; inactive = the rest.
Select the matching outcome among label 1 = active, label 0 = inactive

As a guide, the following entries are already answered.
[[record]]
structure_smiles_string = "Cc1nc2sc(C(=O)Nc3cccc(Cl)c3C)c(N)c2cc1C(=O)c1ccccc1"
group = "label 1"

[[record]]
structure_smiles_string = "CC(=O)OC[C@]12CCC(C)(C)C[C@H]1[C@@]1(O)[C@H](O)C[C@@H]3[C@@]4(C)CCCNC(C)(C)[C@@H]4CC[C@@]3(C)[C@]1(C)CC2"
group = "label 0"

[[record]]
structure_smiles_string = "CO[C@H]1/C=C(/C)CCC[C@H](C)[C@H](O)[C@@H](C)C(=O)C(C)(C)[C@@H](O)CC(=O)O[C@@H]1/C(C)=C/c1csc(C)n1"
group = "label 1"


Would you kindly look at the next entry?
# input Call for entry `CN([O-])c1nc(N(C)[O-])nc(N2CCOCC2)n1.CN([O-])c1nc(N(C)[OH2+])nc(N2CCOCC2)n1.[Fe+3]` :
# output label 0
